Entries annotated with measured z-score
assay.procedure: FRG1 promoter luciferase signal modulators, primary screen, FRG1 inhibition for FSHD, cell-based, C2C12 myotubes, firefly/Renilla luciferase, luminescence (AID 1084)
experimental.context: higher = more signal, called active from +8 up or from −8 down
recorded.metric: z-score

compound | recorded.metric | observed
COC(=O)c1c(CC[C@@H](CO)NC(=O)N[C@@H](Cc2ccccc2)Cn2cc(C3(O)CCCCC3)nn2)oc(C(C)=O)c1C(=O)OC | z-score | 1.14
N#Cc1ccc(NN2C(C(O)c3ccc([N+](=O)[O-])cc3)C=CC3C(=O)N(c4ccccc4)C(=O)C32)cc1 (stereo not drawn) | z-score | 0.536
COC(=O)c1ccc(OC)c(/C=C\CC(OC(C)=O)c2ccccc2)c1 (stereo not drawn) | z-score | -1.21
CC(C)(C)OC(=O)CC[C@@]1(C(=O)NCCN2CCOCC2)N=C(c2ccc(OCCCO)cc2)O[C@@H]1c1ccccc1 | z-score | 0.951
CC(C)CNC(=O)[C@@]1(c2ccc([N+](=O)[O-])cc2)CC(=O)N(CC23CC4CC(CC(C4)C2)C3)[C@@H]1c1ccc(CO)cc1I | z-score | -1.52
COC(=O)[C@@]1(Cc2ccc(F)cc2)[C@H]2c3cc(C(=O)N(C)C)n(CCc4ccccn4)c3C[C@H]2CN1C(=O)c1ccccc1 | z-score | 1.98
O=C1C2C=CC(C(O)c3ccc(B(O)O)cc3)N(Nc3ccccc3)C2C(=O)N1c1ccccc1 (stereo not drawn) | z-score | 4.59
[N-]=[N+]=NCc1ccccc1C[C@]1(C(=O)NCC(O)CO)N=C(c2ccc(OCCCO)cc2)O[C@H]1c1ccccc1N=[N+]=[N-] (stereo partly drawn) | z-score | -0.5
